test system: MOLM14; assay: cell viability relative to vehicle control; higher = less cytotoxic; conditions: 10 µM; SRSF2 genotype: SRSF2 P95H/wt;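 further: after 48 h exposure read by CellTiter-Glo luminescence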
Structures can show the parent of a compound that is named as a salt.
Recorded cell viability for the following compounds
measured.quantity: cell viability (%)

- compound: "O=C(NC1CCN(CCCCC2(C(=O)NCC(F)(F)F)c3ccccc3-c3ccccc32)CC1)c1ccccc1-c1ccc(C(F)(F)F)cc1 [Lomitapide Mesylate]"
  measured.quantity: "cell viability"
  units.symbol: "%"
  observed.value: 0.26
- compound: "CCN1CCN(Cc2ccc(-c3cc4c(N[C@H](C)c5ccccc5)ncnc4[nH]3)cc2)CC1"
  measured.quantity: "cell viability"
  units.symbol: "%"
  observed.value: 12.6
- compound: "COc1ccc(C(=O)C2CCN(CC(=O)N(Cc3nc4c(c(=O)[nH]3)COCC4)CC3CC3)CC2)cc1"
  measured.quantity: "cell viability"
  units.symbol: "%"
  observed.value: 109
- compound: "COC(=O)N[C@H](C(=O)N1CCC[C@H]1C(=O)Nc1ccc([C@@H]2CC[C@@H](c3ccc(NC(=O)[C@@H]4CCCN4C(=O)[C@@H](NC(=O)OC)C(C)C)cc3)N2c2ccc(C(C)(C)C)cc2)cc1)C(C)C"
  measured.quantity: "cell viability"
  units.symbol: "%"
  observed.value: 91.9
- compound: "CC1(C)C[C@@H]1C(=O)N/C(=C\\CCCCSC[C@H](N)C(=O)O)C(=O)O"
  measured.quantity: "cell viability"
  units.symbol: "%"
  observed.value: 104
- compound: "COc1ccc([C@@H]2CC(=O)c3c(O)cc(O)cc3O2)cc1O"
  measured.quantity: "cell viability"
  units.symbol: "%"
  observed.value: 107
- compound: "CC1=C(/C=C/C(C)=C/C=C/C(C)=C/C=C/C=C(C)/C=C/C=C(C)/C=C/C2=C(C)CCCC2(C)C)C(C)(C)CCC1"
  measured.quantity: "cell viability"
  units.symbol: "%"
  observed.value: 93.8
- compound: "COc1cc(O)c2c(=O)cc(-c3ccc(O)c(O)c3)oc2c1 [Hydroxygenkwanin]"
  measured.quantity: "cell viability"
  units.symbol: "%"
  observed.value: 57.5
- compound: "N#CC1(c2ccc(NC(=O)c3cccnc3NCc3ccncc3)cc2)CCCC1 [Apatinib mesylate]"
  measured.quantity: "cell viability"
  units.symbol: "%"
  observed.value: 45.8
- compound: "CN1CCN2c3ncccc3Cc3ccccc3C2C1 (centres undefined) [Mirtazapine (Remeron, Avanza)]"
  measured.quantity: "cell viability"
  units.symbol: "%"
  observed.value: 92.3
- compound: "COc1cc(/C=C/C(=O)OC[C@H]2O[C@H](O[C@]3(CO)O[C@H](CO)[C@@H](O)[C@@H]3OC(=O)/C=C/c3cc(OC)c(O)c(OC)c3)[C@H](O)[C@@H](O)[C@@H]2O)cc(OC)c1O"
  measured.quantity: "cell viability"
  units.symbol: "%"
  observed.value: 112
- compound: "COc1cc2c(Oc3ccc4[nH]c(C)cc4c3F)ccnc2cc1OCC1(N)CC1 [Anlotinib (AL3818) dihydrochloride]"
  measured.quantity: "cell viability"
  units.symbol: "%"
  observed.value: 9.28
- compound: "Oc1ccc2c(c1)OC[C@H]1c3cc4c(cc3O[C@@H]21)OCO4"
  measured.quantity: "cell viability"
  units.symbol: "%"
  observed.value: 90.7
- compound: "Cc1ccc(N(CC2=NCCN2)c2cccc(O)c2)cc1 [Phentolamine Mesylate]"
  measured.quantity: "cell viability"
  units.symbol: "%"
  observed.value: 102
